Measured PBM binding z-score, listed per entry for reference.
System: LXRb:RXRa (NR concentration 270 nM, RXRa partner concentration 90 nM)
METHOD_DESCRIPTION: PBM binding z-score (relative to random genomic background probes); higher = stronger binding; sequences stand for … in GC…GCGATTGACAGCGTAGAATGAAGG
Form rule: numeric answer, no unit written next to it.

These recorded examples may help you get a feel for the data.
>>> print(df.to_string())
                             sequence  recorded_measurement
0  TAGCCTAGGTCATCCAGGGGCCAGTATAGAAAGC                  2.82
1  GCTTGTAGATCAAGGTAAAGAAAGACTAAGCTAA                -0.413
2  CGTCCAAGGTCATAGGATGTCAGTGAAGACAGAT                  4.02

Problem: Data request, read-out PBM binding z-score, for "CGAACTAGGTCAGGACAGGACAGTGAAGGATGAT"
Solution: 0.443

Problem: Data request, read-out PBM binding z-score, for "ACAGAGAGGTGAGTGAAGGTAACTCAGCTGGACG"
Solution: 0.265

Values were extracted from the supplement of paper PMC6555819.
